Tested on: A2780 (Ovarian Carcinoma)
assay method text: Bliss excess, mean over the matrix (fraction); higher = more synergy
# reported Bliss excess; entries follow
recorded endpoint: Bliss excess

>>> measured_value("CN(CCO)CC[C@H](CSc1ccccc1)Nc1ccc(S(=O)(=O)NC(=O)c2ccc(N3CCC([C@@H](O)c4ccccc4-c4ccc(Cl)cc4)CC3)cc2)cc1S(=O)(=O)C(F)(F)F [AZD4320] + C1CN(CCC1(C(=O)N[C@@H](CCO)C2=CC=C(C=C2)Cl)N)C3=NC=NC4=C3C=CN4 [Capivasertib] (first compound max 1 µM, 7x7, partner max 3 µM)")
-0.0734
>>> measured_value("COc1nnc2ccc(N3CCC(c4ccc(OCCN5CCN(C)C(=O)[C@H]5C)cc4)CC3)nn12 [AZD5153] + C[C@@H]1COCCN1C2=NC(=NC(=C2)C3(CC3)[S@](=N)(=O)C)C4=C5C=CNC5=NC=C4 [AZD6738] (first compound max 1 µM, 7x7, partner max 10 µM)")
-0.0058
>>> measured_value("CC1(C)CCC(CN2CCN(c3ccc(C(=O)NS(=O)(=O)c4ccc(NCC5CCOCC5)c([N+](=O)[O-])c4)c(Oc4cnc5[nH]ccc5c4)c3)CC2)=C(c2ccc(Cl)cc2)C1 [Venetoclax] + COc1cc(Nc2ncc3c(n2)-c2ccc(Cl)cc2C(c2c(F)cccc2OC)=NC3)ccc1C(=O)O [Alisertib] (first compound max 1 µM, 7x7, partner max 10 µM)")
-0.0602
>>> measured_value("CC1(C)CCC(CN2CCN(c3ccc(C(=O)NS(=O)(=O)c4ccc(NCC5CCOCC5)c([N+](=O)[O-])c4)c(Oc4cnc5[nH]ccc5c4)c3)CC2)=C(c2ccc(Cl)cc2)C1 [Venetoclax] + C[C@@H](Nc1cc(F)cc(F)c1)c1cc(C(=O)N(C)C)cc2c(=O)cc(N3CCOCC3)oc12 [AZD8186] (first compound max 1 µM, 7x7, partner max 3 µM)")
-0.0138
>>> measured_value("O=C(c1cc(Cc2n[nH]c(=O)c3ccccc23)ccc1F)N1CCN(C(=O)C2CC2)CC1 [Olaparib] + CC1(C)CCC(CN2CCN(c3ccc(C(=O)NS(=O)(=O)c4ccc(NCC5CCOCC5)c([N+](=O)[O-])c4)c(Oc4cnc5[nH]ccc5c4)c3)CC2)=C(c2ccc(Cl)cc2)C1 [Venetoclax] (first compound max 10 µM, 7x7, partner max 1 µM)")
-0.0044
>>> measured_value("CC1(C)CCC(CN2CCN(c3ccc(C(=O)NS(=O)(=O)c4ccc(NCC5CCOCC5)c([N+](=O)[O-])c4)c(Oc4cnc5[nH]ccc5c4)c3)CC2)=C(c2ccc(Cl)cc2)C1 [Venetoclax] + CCN(CCO)CCCOc1ccc2c(Nc3cc(CC(=O)Nc4cccc(F)c4)[nH]n3)ncnc2c1 [AZD2811] (first compound max 1 µM, 7x7, partner max 1 µM)")
0.019

----------
Tested on: HCC1428 (Breast Carcinoma)
assay method text: combination Emax (second highest fraction inhibited in the dose matrix, 72 h); higher = more inhibition; extreme values may be limits of the assay
Rule: combination Emax of 0.3 or more gives Criterion met; anything lower gives Criterion not met.

>>> group("CC1(C)CCC(CN2CCN(c3ccc(C(=O)NS(=O)(=O)c4ccc(NCC5CCOCC5)c([N+](=O)[O-])c4)c(Oc4cnc5[nH]ccc5c4)c3)CC2)=C(c2ccc(Cl)cc2)C1 [Venetoclax] + COc1cc(Nc2ncc3c(n2)-c2ccc(Cl)cc2C(c2c(F)cccc2OC)=NC3)ccc1C(=O)O [Alisertib] (first compound max 1 µM, 7x7, partner max 10 µM)")
"Criterion met"
>>> group("COc1cccc(OCCCN)c1-c1cc(Nc2cnc(C#N)cn2)n[nH]1 [Prexasertib] + C=CCn1c(=O)c2cnc(Nc3ccc(N4CCN(C)CC4)cc3)nc2n1-c1cccc(C(C)(C)O)n1 [AZD1775] (first compound max 1 µM, partner max 1 µM)")
"Criterion met"
>>> group("CC(=O)c1c(C)c2cnc(Nc3ccc(N4CCNCC4)cn3)nc2n(C2CCCC2)c1=O [Palbociclib] + CC1(C)CCC(CN2CCN(c3ccc(C(=O)NS(=O)(=O)c4ccc(NCC5CCOCC5)c([N+](=O)[O-])c4)c(Oc4cnc5[nH]ccc5c4)c3)CC2)=C(c2ccc(Cl)cc2)C1 [Venetoclax] (first compound max 10 µM, 7x7, partner max 1 µM)")
"Criterion not met"
>>> group("NC1(C(=O)N[C@@H](CCO)c2ccc(Cl)cc2)CCN(c2ncnc3[nH]ccc23)CC1 [Capivasertib] + COc1nnc2ccc(N3CCC(c4ccc(OCCN5CCN(C)C(=O)[C@H]5C)cc4)CC3)nn12 [AZD5153] (first compound max 10 µM, 7x7, partner max 1 µM)")
"Criterion met"
>>> group("Cc1nc(Nc2ncc(C(=O)Nc3c(C)cccc3Cl)s2)cc(N2CCN(CCO)CC2)n1 [Dasatinib] + CC(=O)Nc1cccc(-n2c(=O)n(C3CC3)c(=O)c3c(Nc4ccc(I)cc4F)n(C)c(=O)c(C)c32)c1 [Trametinib] (first compound max 2 µM, 7x7, partner max 1 µM)")
"Criterion not met"
>>> group("CC(=O)c1c(C)c2cnc(Nc3ccc(N4CCNCC4)cn3)nc2n(C2CCCC2)c1=O [Palbociclib] + CN(CC[C@H](CSC1=CC=CC=C1)NC2=C(C=C(C=C2)S(=O)(=O)NC(=O)C3=CC=C(C=C3)N4CCC(CC4)[C@H](C5=CC=CC=C5C6=CC=C(C=C6)Cl)O)S(=O)(=O)C(F)(F)F)CCO [AZD4320] (first compound max 10 µM, 7x7, partner max 1 µM)")
"Criterion met"

----------
# combination Emax values compiled below
System: IM-9 (Non-Cancerous)
assay method text: combination Emax (second highest fraction inhibited in the dose matrix, 72 h); higher = more inhibition; extreme values may be limits of the assay
recorded endpoint: combination Emax

>>> measured_value("N#Cc1cnc(Nc2cc(NC[C@H]3CNCCO3)c(C(F)(F)F)cn2)cn1 [SRA737] + C=CCn1c(=O)c2cnc(Nc3ccc(N4CCN(C)CC4)cc3)nc2n1-c1cccc(C(C)(C)O)n1 [AZD1775] (first compound max 10 µM, partner max 1 µM)")
1
>>> measured_value("C[C@@H](Oc1cc(-c2cnn(C3CCNCC3)c2)cnc1N)c1c(Cl)ccc(F)c1Cl [Crizotinib] + CC1=C(C(=CC=C1)Cl)NC(=O)C2=CN=C(S2)NC3=CC(=NC(=N3)C)N4CCN(CC4)CCO [Dasatinib] (first compound max 10 µM, 7x7, partner max 2 µM)")
0.974
>>> measured_value("COc1nnc2ccc(N3CCC(c4ccc(OCCN5CCN(C)C(=O)[C@H]5C)cc4)CC3)nn12 [AZD5153] + C=CCn1c(=O)c2cnc(Nc3ccc(N4CCN(C)CC4)cc3)nc2n1-c1cccc(C(C)(C)O)n1 [AZD1775] (first compound max 1 µM, partner max 1 µM)")
0.975
>>> measured_value("CN(CCO)CC[C@H](CSc1ccccc1)Nc1ccc(S(=O)(=O)NC(=O)c2ccc(N3CCC([C@@H](O)c4ccccc4-c4ccc(Cl)cc4)CC3)cc2)cc1S(=O)(=O)C(F)(F)F [AZD4320] + CC(=O)O[C@H]1C(=O)[C@@]2(C)[C@H]([C@H](OC(=O)c3ccccc3)[C@]3(O)C[C@H](OC(=O)[C@H](O)[C@@H](NC(=O)c4ccccc4)c4ccccc4)C(C)=C1C3(C)C)[C@]1(OC(C)=O)CO[C@@H]1C[C@@H]2O [Paclitaxel] (first compound max 1 µM, 7x7, partner max 3 µM)")
1
>>> measured_value("CN(CCO)CC[C@H](CSc1ccccc1)Nc1ccc(S(=O)(=O)NC(=O)c2ccc(N3CCC([C@@H](O)c4ccccc4-c4ccc(Cl)cc4)CC3)cc2)cc1S(=O)(=O)C(F)(F)F [AZD4320] + Cc1cc2ncnn2cc1Nc1ncc2c(n1)n(C1CCOCC1)c(=O)n2C [AZD7648] (first compound max 1 µM, 7x7, partner max 10 µM)")
0.696

----------
Overview of reported Bliss excess across a group of compounds:
Test system: IM-9 (Non-Cancerous)
assay method text: Bliss excess, mean over the matrix (fraction); higher = more synergy
recorded endpoint: Bliss excess

>>> measured_value("COc1cccc2c1C(=O)c1c(O)c3c(c(O)c1C2=O)C[C@@](O)(C(=O)CO)C[C@@H]3O[C@H]1C[C@H](N)[C@H](O)[C@H](C)O1 [Doxorubicin] + Cc1cc2ncnn2cc1Nc1ncc2c(n1)n(C1CCOCC1)c(=O)n2C [AZD7648] (first compound max 1 µM, 7x7, partner max 10 µM)")
0.127
>>> measured_value("COc1cc2c(cc1OCCCCCOc1cc3c(cc1OC)C(=O)N1C=C(C)C[C@H]1C=N3)N=C[C@@H]1CC(C)=CN1C2=O [SG3199] + O=C(c1cc(Cc2n[nH]c(=O)c3ccccc23)ccc1F)N1CCN(C(=O)C2CC2)CC1 [Olaparib] (first compound max 0.001 µM, 7x7, partner max 10 µM)")
-0.0059

----------
Quick list: Bliss excess per entry.
Test system: MHH-ES-1 (Ewing's Sarcoma)
assay method text: Bliss excess, mean over the matrix (fraction); higher = more synergy
recorded endpoint: Bliss excess

>>> measured_value("C=CCn1c(=O)c2cnc(Nc3ccc(N4CCN(C)CC4)cc3)nc2n1-c1cccc(C(C)(C)O)n1 [AZD1775] + Nc1ccn([C@@H]2O[C@H](CO)[C@@H](O)C2(F)F)c(=O)n1 [Gemcitabine] (first compound max 1 µM, partner max 0.3 µM)")
0.0359
>>> measured_value("CCN(CCO)CCCOc1ccc2c(Nc3cc(CC(=O)Nc4cccc(F)c4)[nH]n3)ncnc2c1 [AZD2811] + C[C@@H]1COCCN1C2=NC(=NC(=C2)C3(CC3)[S@](=N)(=O)C)C4=C5C=CNC5=NC=C4 [AZD6738] (first compound max 1 µM, 7x7, partner max 10 µM)")
-0.0145
